Experiment: Efflux ratio of apparent permeability from basolateral to apical side over apical to basolateral side in human Caco2 cells at 25 uM
Format: ADME, cell-based
Conditions: Caco-2
Would you mind telling me the reported efflux ratio at 25 µM of each entry?
Numbers only.

Use the examples below as a reference point.
# smiles-text, efflux ratio at 25 µM
measured = [
    ("CN(c1ncnc2[nH]ccc12)[C@H]1CN(S(=O)(=O)c2cccc(C#N)c2)CC12CC2", 1.17),
    ("CCS(=O)(=O)N1C[C@H](N(C)c2ncnc3[nH]ccc23)C2(CC2)C1", 1.01),
]

Could you now look at the following molecule, please?
Quick note, efflux ratio at 25 µM for `CN(c1ncnc2[nH]ccc12)[C@H]1CN(C(=O)CC#N)CC12CC2` landed at 2.78

====

Would you mind telling me the reported activity at 0.25 h, 10 µM of each entry?
Molecular target: CYP2C19 (Homo sapiens, UniProt P33261)
Sequence (P33261 whole entry): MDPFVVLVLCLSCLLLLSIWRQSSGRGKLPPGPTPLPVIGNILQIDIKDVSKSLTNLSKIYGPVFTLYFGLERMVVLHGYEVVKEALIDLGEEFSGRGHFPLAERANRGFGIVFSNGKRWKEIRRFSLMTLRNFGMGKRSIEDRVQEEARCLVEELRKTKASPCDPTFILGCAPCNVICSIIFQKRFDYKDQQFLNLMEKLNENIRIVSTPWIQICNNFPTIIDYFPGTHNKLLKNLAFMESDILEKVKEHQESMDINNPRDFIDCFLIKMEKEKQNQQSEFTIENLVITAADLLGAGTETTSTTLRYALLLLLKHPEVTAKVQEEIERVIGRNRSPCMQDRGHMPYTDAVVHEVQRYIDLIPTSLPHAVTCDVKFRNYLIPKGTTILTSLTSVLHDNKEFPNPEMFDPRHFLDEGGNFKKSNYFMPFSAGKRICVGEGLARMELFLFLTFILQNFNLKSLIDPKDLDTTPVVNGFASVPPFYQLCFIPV
Test: Inhibition of CYP2C19 in human liver microsomes assessed as remaining activity at 10 uM using S-mephenytoin as substrate preincubated for 5 mins followed by addition of NADPH regenerating system and measured after 15 mins by LC-MS/MS analysis relative to control
Type: ADME
Conditions: probe S-mephenytoin, read-out: Activity
Quick note: number first, unit second.

# smiles-text, parameter-measured, data-value
data = [
    ("CN(c1ncnc2[nH]ccc12)[C@H]1CN(S(=O)(=O)c2cccc(C#N)c2)CC12CC2", "activity at 0.25 h, 10 µM", "55.8%"),
    ("CN(c1ncnc2[nH]ccc12)[C@H]1CN(C(=O)CC#N)CC12CC2", "activity at 0.25 h, 10 µM", "66%"),
]

Could you now look at the following molecule, please?
Quick note, activity at 0.25 h, 10 µM for `CCS(=O)(=O)N1C[C@H](N(C)c2ncnc3[nH]ccc23)C2(CC2)C1` landed at 93.8%

====

Assay: MRT in Sprague-Dawley rat at 10 mg/kg, po after 0.25 to 24 hrs by LC-MS/MS method
Assay type: ADME, organism-based
Conditions: in vivo
parameter-measured: MRT (h)
Numbers only, in h.

Use the examples below as a reference point.
# smiles-text, u, MRT
data = [
    ("CN(c1ncnc2[nH]ccc12)[C@H]1CN(C(=O)CC#N)CC12CC2.O=C(O)C(O)C(O)C(=O)O", "h", 1.5),
    ("CN(c1ncnc2[nH]ccc12)[C@H]1CN(C(=O)CC#N)CC12CC2.Cl", "h", 1.6),
    ("CN(c1ncnc2[nH]ccc12)[C@H]1CN(C(=O)CC#N)CC12CC2.O=C(O)CC(O)(CC(=O)O)C(=O)O", "h", 2.3),
]

Could you now look at the following compound, please?
Quick note, MRT for `CN(c1ncnc2[nH]ccc12)[C@H]1CN(C(=O)CC#N)CC12CC2` landed at 3.1

====

Would you mind telling me the reported inhibition of each entry?
Molecular target: Tyrosine-protein kinase JAK1 (Homo sapiens)
Sequence (P23458 whole entry): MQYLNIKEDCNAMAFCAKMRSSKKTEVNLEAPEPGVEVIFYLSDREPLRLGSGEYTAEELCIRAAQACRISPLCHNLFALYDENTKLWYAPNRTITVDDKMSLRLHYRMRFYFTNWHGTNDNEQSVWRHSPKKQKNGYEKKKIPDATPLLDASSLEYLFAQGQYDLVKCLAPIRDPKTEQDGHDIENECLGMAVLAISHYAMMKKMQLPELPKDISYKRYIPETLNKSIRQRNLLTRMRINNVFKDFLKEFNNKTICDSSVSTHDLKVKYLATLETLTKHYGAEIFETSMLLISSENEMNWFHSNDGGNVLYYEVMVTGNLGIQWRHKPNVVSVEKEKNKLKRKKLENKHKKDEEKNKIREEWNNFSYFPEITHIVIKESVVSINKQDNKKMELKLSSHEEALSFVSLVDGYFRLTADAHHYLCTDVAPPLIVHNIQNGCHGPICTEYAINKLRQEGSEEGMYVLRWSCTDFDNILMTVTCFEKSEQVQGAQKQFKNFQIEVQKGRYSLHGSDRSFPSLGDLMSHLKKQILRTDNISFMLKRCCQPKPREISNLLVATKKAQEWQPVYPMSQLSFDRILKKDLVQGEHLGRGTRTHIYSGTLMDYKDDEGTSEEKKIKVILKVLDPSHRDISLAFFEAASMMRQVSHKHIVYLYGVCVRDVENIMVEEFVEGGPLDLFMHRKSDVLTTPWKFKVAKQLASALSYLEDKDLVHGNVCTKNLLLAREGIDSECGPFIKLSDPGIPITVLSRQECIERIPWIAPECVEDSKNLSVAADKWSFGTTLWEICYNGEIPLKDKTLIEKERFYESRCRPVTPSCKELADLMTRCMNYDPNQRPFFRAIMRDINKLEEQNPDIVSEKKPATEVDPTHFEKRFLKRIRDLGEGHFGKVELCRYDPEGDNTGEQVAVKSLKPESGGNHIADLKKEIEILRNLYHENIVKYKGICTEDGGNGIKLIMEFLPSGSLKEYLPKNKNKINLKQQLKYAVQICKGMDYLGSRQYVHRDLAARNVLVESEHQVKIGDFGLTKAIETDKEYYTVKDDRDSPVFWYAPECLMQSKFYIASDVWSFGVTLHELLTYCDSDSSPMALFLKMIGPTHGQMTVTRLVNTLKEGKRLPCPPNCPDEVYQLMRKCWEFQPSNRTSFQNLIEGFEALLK
Assay: Inhibition of human JAK1 at 1 uM using GEEPLYWSFPAKKK as substrate after 40 mins in presence of [gamma-33P-ATP] by scintillation counting method relative to control
Give bare numbers, in %.

Give inhibition for each listed item.
1. CN(c1ncnc2[nH]ccc12)C1CN(C(=O)CC#N)CC12CC2 (racemic)
2. CN(c1ncnc2[nH]ccc12)[C@@H]1CCCN(C(=O)CC#N)C1
3. CN(c1ncnc2[nH]ccc12)C1CCN(C(=O)CC#N)CC1
4. N#CCC(=O)NC1CN(c2ncnc3[nH]ccc23)CC12CC2 (configuration not stated)
5. N#CCC(=O)N1C[C@H]2CCCN(c3ncnc4[nH]ccc34)[C@H]2C1

1: 95; 2: 99; 3: 49; 4: 6; 5: 54

Give inhibition for each listed item.
1. N#CCC(=O)N1CCC(Oc2ncnc3[nH]ccc23)CC1
2. N#CCC(=O)N1CCCC(COc2ncnc3[nH]ccc23)C1 (configuration not stated)

1: 35; 2: 30
